Tested on: Cheumatopsyche
method notes: Insecticidal activity against first-instar larvae of Cheumatopsyche brevilineata after 48 hr
Format: functional, organism-based
Mark Fulfilled only for EC50 values smaller than 3 ng/mL; exact matches and larger values are Not fulfilled.

Some entries whose results are on file:
C/C(=N\C#N)N(C)Cc1ccc(Cl)nc1    Not fulfilled
CCc1ccc(C(=O)NN(C(=O)c2cc(C)cc(C)c2)C(C)(C)C)cc1 [TEBUFENOZIDE]    Not fulfilled
CN/C(=N\[N+](=O)[O-])NCc1cnc(Cl)s1    Not fulfilled
CCCCN(CCCC)SN(C)C(=O)Oc1cccc2c1OC(C)(C)C2    Fulfilled
CN/C(=N/CC1CCOC1)N[N+](=O)[O-] (centres undefined)    Not fulfilled
N#Cc1nn(-c2c(Cl)cc(C(F)(F)F)cc2Cl)c(N)c1[S+]([O-])C(F)(F)F (centres undefined)    Fulfilled
CCC(C)c1ccccc1OC(=O)NC (centres undefined)    Not fulfilled
CN(C)C(CSC(N)=O)CSC(N)=O.Cl [CARTAP HYDROCHLORIDE]    Not fulfilled

Now take the following compound into account.
Check if EC50 falls below 3 ng/mL for "CC(C)N1C(=O)N(c2ccccc2)CS/C1=N\C(C)(C)C" .
Not fulfilled
